Target: T1, mouse DLL4 extracellular domain (mouse, UniProt Q9JI71 27-532)
T1 construct: extracellular domain; also called muDLL4 ECD; murine DLL4
T1 sequence (Q9JI71 27-532): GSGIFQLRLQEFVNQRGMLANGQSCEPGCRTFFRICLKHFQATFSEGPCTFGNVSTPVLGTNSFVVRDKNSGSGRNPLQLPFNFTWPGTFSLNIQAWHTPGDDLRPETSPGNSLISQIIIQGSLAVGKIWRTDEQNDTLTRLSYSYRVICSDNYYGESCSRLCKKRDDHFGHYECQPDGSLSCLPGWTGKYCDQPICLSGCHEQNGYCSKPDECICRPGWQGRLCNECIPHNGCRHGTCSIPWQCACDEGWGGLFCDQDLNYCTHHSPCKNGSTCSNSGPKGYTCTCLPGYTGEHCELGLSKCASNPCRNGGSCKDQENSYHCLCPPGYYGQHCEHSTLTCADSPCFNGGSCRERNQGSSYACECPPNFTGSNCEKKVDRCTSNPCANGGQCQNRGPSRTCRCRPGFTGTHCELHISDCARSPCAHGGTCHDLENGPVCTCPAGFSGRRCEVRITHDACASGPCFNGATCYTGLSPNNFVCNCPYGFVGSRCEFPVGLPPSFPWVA
Experiment: SPR (Biacore)
List of pKd values.
In textbook form, pKd equals minus log to base ten of the concentration in mol/L.

1) h1A11.10 (antibody, V domains shown, humanized IgG; also called VH.1b/VL.1a 1A11) VH: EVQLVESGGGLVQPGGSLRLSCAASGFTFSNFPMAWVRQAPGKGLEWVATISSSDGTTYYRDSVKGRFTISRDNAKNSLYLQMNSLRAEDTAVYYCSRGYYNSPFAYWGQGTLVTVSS VL: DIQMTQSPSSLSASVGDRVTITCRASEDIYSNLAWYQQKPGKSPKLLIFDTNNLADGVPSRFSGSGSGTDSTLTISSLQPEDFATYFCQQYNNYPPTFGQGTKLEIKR | 7.46

Below: the item to evaluate.
Query string: Which pKd is reported for this binder? h1A11.14 (antibody, V domains shown, humanized IgG; also called VH.2a/VL.1a 1A11) VH: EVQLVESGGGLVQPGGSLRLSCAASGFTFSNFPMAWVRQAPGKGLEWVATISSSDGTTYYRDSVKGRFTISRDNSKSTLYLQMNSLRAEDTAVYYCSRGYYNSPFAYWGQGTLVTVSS VL: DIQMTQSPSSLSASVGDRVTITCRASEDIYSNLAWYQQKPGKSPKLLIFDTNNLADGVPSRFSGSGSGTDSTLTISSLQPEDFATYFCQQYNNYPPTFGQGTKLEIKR
Result string: 7.55

Entry source: patent US20110217237A1
